This listing pairs variants with measured abundance fitness.
B1: Kinesin-like protein KIF16B, residues 1213 to 1273; numbered along this chain, Q96L93 (parent)
chain: ETWTVFRRYSRFREMHKTLKLKYAELAALEFPPKKLFGNKDERVIAERRSHLEKYLRDFFS

Variants of: B1
Assay: abundance fitness (aPCA) (normalised: wild type 0, dead -1); higher = more abundant; growth selection in yeast, the domain comes from the species named
Conditions: Homo sapiens
Write the number on its own, no unit after it.

Known results for variants:
L36F | -0.02
K22D | -0.907
P33Q | -0.429
G38R | -0.145
A28F | -0.116

Give the value of abundance fitness reported for the following: L26M -0.298

Quote abundance fitness reported for T4Y please. -0.139
